B1: TPR 5TU (parent)
chain: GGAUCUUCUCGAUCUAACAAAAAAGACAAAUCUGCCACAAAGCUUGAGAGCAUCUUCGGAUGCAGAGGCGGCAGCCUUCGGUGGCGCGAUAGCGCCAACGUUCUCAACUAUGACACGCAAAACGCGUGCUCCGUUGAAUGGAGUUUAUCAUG

- Variants of: B1
- assayProtocol: polymerase ribozyme fitness, log enrichment relative to wild type (log ratio); higher = more active; in vitro selection for triplet polymerase activity
This sample holds only a part of the variants without activity.
observedProperty: polymerase ribozyme fitness (log ratio)

mutationLabel: A60G C93U U104G G143C
observedProperty: polymerase ribozyme fitness (log ratio)
readingQualifier: =
readoutNumber: -3.09

mutationLabel: A26G A73U C85A U151G
observedProperty: polymerase ribozyme fitness (log ratio)
readingQualifier: ≤
readoutNumber: -4.2

mutationLabel: A41U C95U A98C
observedProperty: polymerase ribozyme fitness (log ratio)
readingQualifier: =
readoutNumber: -1.48

mutationLabel: C36A U44A G62C C93U U135G U139C U144A
observedProperty: polymerase ribozyme fitness (log ratio)
readingQualifier: ≤
readoutNumber: -4.2

mutationLabel: A23U A40U A73G
observedProperty: polymerase ribozyme fitness (log ratio)
readingQualifier: ≤
readoutNumber: -4.2

mutationLabel: A17G G67C G86A
observedProperty: polymerase ribozyme fitness (log ratio)
readingQualifier: ≤
readoutNumber: -4.2

mutationLabel: C76A A110U U139C G143U
observedProperty: polymerase ribozyme fitness (log ratio)
readingQualifier: ≤
readoutNumber: -4.2

mutationLabel: G25U A41G C93G A113U A150U
observedProperty: polymerase ribozyme fitness (log ratio)
readingQualifier: ≤
readoutNumber: -4.2

mutationLabel: A21U A39C U90C C95U A97U
observedProperty: polymerase ribozyme fitness (log ratio)
readingQualifier: ≤
readoutNumber: -4.2

mutationLabel: C14U G88A
observedProperty: polymerase ribozyme fitness (log ratio)
readingQualifier: =
readoutNumber: -4.2

mutationLabel: A20U A41G A49U A52C G86C C96G
observedProperty: polymerase ribozyme fitness (log ratio)
readingQualifier: ≤
readoutNumber: -4.2

mutationLabel: U55A A60U U101G
observedProperty: polymerase ribozyme fitness (log ratio)
readingQualifier: =
readoutNumber: -0.433

mutationLabel: G84C G94A
observedProperty: polymerase ribozyme fitness (log ratio)
readingQualifier: =
readoutNumber: -4.07

mutationLabel: C5G C85A C116A
observedProperty: polymerase ribozyme fitness (log ratio)
readingQualifier: =
readoutNumber: 0.0205

mutationLabel: G42C A49C
observedProperty: polymerase ribozyme fitness (log ratio)
readingQualifier: ≤
readoutNumber: -4.2

mutationLabel: U31G U61A A66G U90C U101C
observedProperty: polymerase ribozyme fitness (log ratio)
readingQualifier: ≤
readoutNumber: -4.2

mutationLabel: A91U A106G
observedProperty: polymerase ribozyme fitness (log ratio)
readingQualifier: =
readoutNumber: -4.01

mutationLabel: U61A A107C C114U G140U
observedProperty: polymerase ribozyme fitness (log ratio)
readingQualifier: ≤
readoutNumber: -4.2

mutationLabel: A40G A49G
observedProperty: polymerase ribozyme fitness (log ratio)
readingQualifier: =
readoutNumber: -3.58

mutationLabel: C85U A142C
observedProperty: polymerase ribozyme fitness (log ratio)
readingQualifier: =
readoutNumber: -1.12

mutationLabel: G83A G124C
observedProperty: polymerase ribozyme fitness (log ratio)
readingQualifier: =
readoutNumber: -2.64

mutationLabel: A26U U56A A98G
observedProperty: polymerase ribozyme fitness (log ratio)
readingQualifier: =
readoutNumber: -1.83

mutationLabel: A47U U55A C87U
observedProperty: polymerase ribozyme fitness (log ratio)
readingQualifier: =
readoutNumber: -2.17

mutationLabel: A41C U55A C93A
observedProperty: polymerase ribozyme fitness (log ratio)
readingQualifier: =
readoutNumber: -3.32

mutationLabel: C8A C116U U135C A150G
observedProperty: polymerase ribozyme fitness (log ratio)
readingQualifier: ≤
readoutNumber: -4.2

mutationLabel: G50C A98G
observedProperty: polymerase ribozyme fitness (log ratio)
readingQualifier: =
readoutNumber: -3.37

mutationLabel: U13C G25C C76A A97U C103G C105G U139C
observedProperty: polymerase ribozyme fitness (log ratio)
readingQualifier: ≤
readoutNumber: -4.2

mutationLabel: C18G A49C C57G C87A G128U U146G
observedProperty: polymerase ribozyme fitness (log ratio)
readingQualifier: ≤
readoutNumber: -4.2

mutationLabel: U53C G143U
observedProperty: polymerase ribozyme fitness (log ratio)
readingQualifier: =
readoutNumber: -2.74

mutationLabel: G11A A12U C51G U55G G62C U90C C108G
observedProperty: polymerase ribozyme fitness (log ratio)
readingQualifier: ≤
readoutNumber: -4.2

mutationLabel: U53A G126U
observedProperty: polymerase ribozyme fitness (log ratio)
readingQualifier: =
readoutNumber: 0.134

mutationLabel: U9G C103A
observedProperty: polymerase ribozyme fitness (log ratio)
readingQualifier: =
readoutNumber: -3.73

mutationLabel: C38A C51U C95A C131A
observedProperty: polymerase ribozyme fitness (log ratio)
readingQualifier: =
readoutNumber: -3.34

mutationLabel: G62A C75U
observedProperty: polymerase ribozyme fitness (log ratio)
readingQualifier: =
readoutNumber: -0.822

mutationLabel: A39U U77A G81C C87U C95U A98C G126U G136C
observedProperty: polymerase ribozyme fitness (log ratio)
readingQualifier: ≤
readoutNumber: -4.2

mutationLabel: A28C C57A A66U G71A C87A U102G A138C
observedProperty: polymerase ribozyme fitness (log ratio)
readingQualifier: ≤
readoutNumber: -4.2

mutationLabel: U7A U45G A49C G50C C87U C96A
observedProperty: polymerase ribozyme fitness (log ratio)
readingQualifier: ≤
readoutNumber: -4.2

mutationLabel: C63U A89G C93A
observedProperty: polymerase ribozyme fitness (log ratio)
readingQualifier: ≤
readoutNumber: -4.2

mutationLabel: C57U G92A U104C U135C
observedProperty: polymerase ribozyme fitness (log ratio)
readingQualifier: ≤
readoutNumber: -4.2

mutationLabel: C103G A120U U146G
observedProperty: polymerase ribozyme fitness (log ratio)
readingQualifier: =
readoutNumber: -1.37

mutationLabel: A17G U145C
observedProperty: polymerase ribozyme fitness (log ratio)
readingQualifier: =
readoutNumber: 0.174

mutationLabel: G68A G83A C116U
observedProperty: polymerase ribozyme fitness (log ratio)
readingQualifier: ≤
readoutNumber: -4.2

mutationLabel: U9A C76A C85U G100C U104G A115U
observedProperty: polymerase ribozyme fitness (log ratio)
readingQualifier: ≤
readoutNumber: -4.2

mutationLabel: A24C C27A U56A G58A C72U A73U C87U
observedProperty: polymerase ribozyme fitness (log ratio)
readingQualifier: ≤
readoutNumber: -4.2

mutationLabel: U127G U134C
observedProperty: polymerase ribozyme fitness (log ratio)
readingQualifier: =
readoutNumber: -3.03

mutationLabel: U53A G71A C75G C76U G86A A107U C108U
observedProperty: polymerase ribozyme fitness (log ratio)
readingQualifier: ≤
readoutNumber: -4.2

mutationLabel: A24G G92U A122G
observedProperty: polymerase ribozyme fitness (log ratio)
readingQualifier: ≤
readoutNumber: -4.2

mutationLabel: C108U C114U
observedProperty: polymerase ribozyme fitness (log ratio)
readingQualifier: =
readoutNumber: -4.06

mutationLabel: A20U A41C G50A G141A
observedProperty: polymerase ribozyme fitness (log ratio)
readingQualifier: =
readoutNumber: -4.03

mutationLabel: A40C U55G G84C C96U C103U C118U
observedProperty: polymerase ribozyme fitness (log ratio)
readingQualifier: =
readoutNumber: -3.51

mutationLabel: C32U C87G A142U
observedProperty: polymerase ribozyme fitness (log ratio)
readingQualifier: ≤
readoutNumber: -4.2

mutationLabel: A20U A30G C38U G59C A60C A73U G92U
observedProperty: polymerase ribozyme fitness (log ratio)
readingQualifier: ≤
readoutNumber: -4.2

mutationLabel: A3C U56A C69A C93U G126A U139G
observedProperty: polymerase ribozyme fitness (log ratio)
readingQualifier: =
readoutNumber: -2.53

mutationLabel: C57A G62A G86A A113G A120U U127C G136A A142C
observedProperty: polymerase ribozyme fitness (log ratio)
readingQualifier: ≤
readoutNumber: -4.2

mutationLabel: A16C C27G U53A C54A G74A G94A
observedProperty: polymerase ribozyme fitness (log ratio)
readingQualifier: ≤
readoutNumber: -4.2

mutationLabel: C57U C79A A110C
observedProperty: polymerase ribozyme fitness (log ratio)
readingQualifier: ≤
readoutNumber: -4.2

mutationLabel: A30C A52C G83U G84C U135A G141C
observedProperty: polymerase ribozyme fitness (log ratio)
readingQualifier: ≤
readoutNumber: -4.2

mutationLabel: A12U A122U A147C
observedProperty: polymerase ribozyme fitness (log ratio)
readingQualifier: =
readoutNumber: -0.484

mutationLabel: C69A A120C
observedProperty: polymerase ribozyme fitness (log ratio)
readingQualifier: =
readoutNumber: -1.7

mutationLabel: U4G G84U A107U G140A
observedProperty: polymerase ribozyme fitness (log ratio)
readingQualifier: ≤
readoutNumber: -4.2

mutationLabel: A47C U61C C96U
observedProperty: polymerase ribozyme fitness (log ratio)
readingQualifier: =
readoutNumber: -3.35

mutationLabel: U53A A73G G86A G92U C95U G143U
observedProperty: polymerase ribozyme fitness (log ratio)
readingQualifier: ≤
readoutNumber: -4.2

mutationLabel: A47G G59C U61A G92C G141A U148C
observedProperty: polymerase ribozyme fitness (log ratio)
readingQualifier: ≤
readoutNumber: -4.2

mutationLabel: A23U C27G A37U C95G A110G G140C
observedProperty: polymerase ribozyme fitness (log ratio)
readingQualifier: =
readoutNumber: -3.86

mutationLabel: C57G G86U
observedProperty: polymerase ribozyme fitness (log ratio)
readingQualifier: =
readoutNumber: -1.26

mutationLabel: C123A C132G
observedProperty: polymerase ribozyme fitness (log ratio)
readingQualifier: =
readoutNumber: -3.17

mutationLabel: C8A C10G G50U C51G U56G C57G G62A G86A
observedProperty: polymerase ribozyme fitness (log ratio)
readingQualifier: ≤
readoutNumber: -4.2

mutationLabel: A20U A22U C57A C96G C125U
observedProperty: polymerase ribozyme fitness (log ratio)
readingQualifier: =
readoutNumber: -3.05

mutationLabel: A20G A47G
observedProperty: polymerase ribozyme fitness (log ratio)
readingQualifier: =
readoutNumber: -0.368

mutationLabel: G71C C129A
observedProperty: polymerase ribozyme fitness (log ratio)
readingQualifier: ≤
readoutNumber: -4.2

mutationLabel: G58A C99U
observedProperty: polymerase ribozyme fitness (log ratio)
readingQualifier: =
readoutNumber: -0.207

mutationLabel: A30G A60U C85A C95A C96A C125U A150C
observedProperty: polymerase ribozyme fitness (log ratio)
readingQualifier: ≤
readoutNumber: -4.2

mutationLabel: C27A C87U
observedProperty: polymerase ribozyme fitness (log ratio)
readingQualifier: =
readoutNumber: -3.91

mutationLabel: C105A
observedProperty: polymerase ribozyme fitness (log ratio)
readingQualifier: =
readoutNumber: -0.411

mutationLabel: U55A G81A
observedProperty: polymerase ribozyme fitness (log ratio)
readingQualifier: =
readoutNumber: -1.9

mutationLabel: G50A G84A A142C
observedProperty: polymerase ribozyme fitness (log ratio)
readingQualifier: =
readoutNumber: -3.15

mutationLabel: A52G G94C U102C C131U
observedProperty: polymerase ribozyme fitness (log ratio)
readingQualifier: =
readoutNumber: -1.64

mutationLabel: G84U C96A
observedProperty: polymerase ribozyme fitness (log ratio)
readingQualifier: =
readoutNumber: -2.84

mutationLabel: G84U U144G
observedProperty: polymerase ribozyme fitness (log ratio)
readingQualifier: =
readoutNumber: -0.698

mutationLabel: A29U C54U G62A A113G U139G U148A
observedProperty: polymerase ribozyme fitness (log ratio)
readingQualifier: ≤
readoutNumber: -4.2

mutationLabel: A91G G133A G141U G143U
observedProperty: polymerase ribozyme fitness (log ratio)
readingQualifier: ≤
readoutNumber: -4.2

mutationLabel: C5A A17U G83A U146G
observedProperty: polymerase ribozyme fitness (log ratio)
readingQualifier: =
readoutNumber: -0.599

mutationLabel: C8A A30U C43G U144C
observedProperty: polymerase ribozyme fitness (log ratio)
readingQualifier: ≤
readoutNumber: -4.2

mutationLabel: A28G A39U U53A G71A C93A
observedProperty: polymerase ribozyme fitness (log ratio)
readingQualifier: ≤
readoutNumber: -4.2

mutationLabel: C5A A24C G48U G65C C87U C99U A121G
observedProperty: polymerase ribozyme fitness (log ratio)
readingQualifier: ≤
readoutNumber: -4.2

mutationLabel: A21G G83C U90C U146A A150C
observedProperty: polymerase ribozyme fitness (log ratio)
readingQualifier: ≤
readoutNumber: -4.2

mutationLabel: G50C A89G C99U A122G
observedProperty: polymerase ribozyme fitness (log ratio)
readingQualifier: ≤
readoutNumber: -4.2

mutationLabel: C103A A150G
observedProperty: polymerase ribozyme fitness (log ratio)
readingQualifier: =
readoutNumber: -4.09

mutationLabel: A19G A28G C38U A49C G58A G65A C76A C93G
observedProperty: polymerase ribozyme fitness (log ratio)
readingQualifier: ≤
readoutNumber: -4.2

mutationLabel: A22C C32G C43G G92A C114U C118G U139A
observedProperty: polymerase ribozyme fitness (log ratio)
readingQualifier: ≤
readoutNumber: -4.2

mutationLabel: A17U G81C U102G U130G G141A
observedProperty: polymerase ribozyme fitness (log ratio)
readingQualifier: ≤
readoutNumber: -4.2

Just for reference, the RNAGym collection of RNA variant scans (doi:10.1073/pnas.2313332121) is where these values come from.
